Test system: TO-3-N3 (biotin conjugate)
Test: pull-down binding Z-score (relative to library population); higher = stronger binding
Details: RNA library: Library-2
MEASURE: pull-down binding Z-score
Lab note: jot down the number only; don't add units.

RESIDUES	pull-down binding Z-score
UGUAUUUUUCAGCAAGGCAAGGGCUUUGAUGUCUUGUA [hsa-mir-8065]	-0.583
AUGGUCUUUGUUCUUUUUUUUGUAUGAAAAUGCCUUUUUACCUUUUGCUAUGGGUAUUAUUGCUAU	-0.455
UGUGGUGGGUGGUGGCCUGCGGUGAGCAGGGCCCUCA [hsa-mir-1228]	1.6
UUUUGCAAUUUUUUAAUGACAAAA [hsa-mir-548t]	-0.494
ACAGUUUGAGGGUCUAUGAUACCACCCGGUACAGGAGAUAACUGU [hsa-let-7g]	-0.508
UACCGAUGCCAUAGAGGUG [IAV_invivo_PB1_2_Motif_30+IAV_invivo_PB1_2_Motif_30]	-0.183

-- ask For the sequence "UGUUACUUUAUAUUGACAUUAAUGGCAAUCUUCAUCCAGAUUCUGCCACUCUUGUUAGUGACA" , report pull-down binding Z-score.
-- reply -0.354

-- ask Return reported pull-down binding Z-score. Input sequence: AAAGCCAGGGACCCUGAGAGGCUUU [hsa-mir-6885]
-- reply 0.0246

-- ask Name the recorded pull-down binding Z-score of the item GGGAUGAGCCCUGGCUCUGUUUCCUAG [hsa-mir-378h] in your answer.
-- reply 0.0333

----------
Tested on: TO-N3-2 (biotin conjugate)
Test: pull-down binding Z-score (relative to library population); higher = stronger binding
Conditions: RNA library: Library-2
Threshold rule: pull-down binding Z-score greater than or equal to -0.3 is class 1; below that, class 0.

Look over these answered cases.
RESIDUES	ASSIGNED LABEL
CUGCUGCCGAUUCUGCACCAG [hsa-mir-4756]	class 1
UUCACAGACUCUCCAAAAGUCUGAA [hsa-mir-4670]	class 0
GUUUGAUAGUUUAGACACAAAC [hsa-mir-3591]	class 0
GAUGCUGUAUAUCUGAAAGGUAC [hsa-mir-101-2]	class 1
CCAUGUGAGUGAAGCCUGAUCAUCAUGUG [hsa-mir-8070]	class 1
CCAGUAUCUGAAUUACUUACACCACUGGGCAUUGAUUUAGAUGAGUGGAGUAUGGCUACAUACUACUUAUUUGAUGAGUCUGGUGAGUUUAAAUUGG	class 0
CUAGUAUGUCUCAUCCCCUACUAG [hsa-mir-151a]	class 1
UGCUGGAGAAGUGUUU [hsa-mir-557]	class 1
CUGGGAGGUGUGAUCCUGUGCUUCCUGG [hsa-mir-3689a]	class 1
GGUUCCCACGCCGCGGCAACC [hsa-mir-6776]	class 1

-- ask Is it the case that "GGCUUCAUCAAACAAUAUGGUGAUUGCC" has pull-down binding Z-score reaching or exceeding -0.3?
-- reply class 0

-- ask Decide: pull-down binding Z-score of CGGACACCCGGCCUCCACUUUCUGUGGCAGGUACCUCCUCCA [hsa-mir-4505] >= -0.3?
-- reply class 1

-- ask Exam item: decide whether the reported pull-down binding Z-score for AGUUCGCUUUUAUUAAUGACGAAUA [hsa-mir-410] is at least -0.3.
-- reply class 1

-- ask # bool: pull-down binding Z-score of "CAUCAACCAUAUGUAGUUGAUG" >= -0.3
-- reply class 0

-- ask Check the entry GGUCCAGCAACAGCUCAAAUGGCC [IAV_invivo_PB1_2_Motif_29+IAV_invivo_PB1_2_Motif_29] : does pull-down binding Z-score equal or exceed -0.3?
-- reply class 1

-- ask Could you please find out whether UGCUCUGAUGAAGACCCAUGUGGC [hsa-mir-621] has pull-down binding Z-score that meets -0.3 or exceeds it?
-- reply class 1

-- ask Is it the case that UUUGCCAUUAAAAGUAAUGCGGCCAA [hsa-mir-548o-2] has pull-down binding Z-score reaching or exceeding -0.3?
-- reply class 1

-- ask Quick check, pull-down binding Z-score >= -0.3? UUUGUCAUUUAAAAGUAAUGGCAAA [hsa-mir-548ae-2]
-- reply class 0

-- ask Tell me whether pull-down binding Z-score is at least -0.3 here: UGAGCAUUCUAGCAGCAGUUUGAUGAUCA [hsa-mir-6516]
-- reply class 1

-- ask Evaluate "AACUACUAUUCAAACAAUUGUUGAGGUUCAACCUCAAUUAGAGAUGGAACUUACACCAGUUGUUCAGACUAUUGAAGUGAAUAGUUUUAGUGGUU" : pull-down binding Z-score at minimum -0.3?
-- reply class 0

-- ask I'd appreciate it if you could say whether GCUGAGCCCUUUGAUAAGGGGGAGGUU [hsa-mir-8080] has pull-down binding Z-score at least equal to -0.3.
-- reply class 1

-- ask Record UGGAGGGGGUUUGUUUGCUUAUUCCCCUCU [hsa-mir-6737] ; criterion: pull-down binding Z-score no lower than -0.3. Met?
-- reply class 1

-- ask Record CCAAAUCCUUUUCUGAUUUGG [hsa-mir-4520-2] ; criterion: pull-down binding Z-score no lower than -0.3. Met?
-- reply class 0
